- study-target: H3255 (EGFR L858R) (Homo sapiens, UniProt P00533, L858R)
- Sequence (P00533 25-1210 L858R): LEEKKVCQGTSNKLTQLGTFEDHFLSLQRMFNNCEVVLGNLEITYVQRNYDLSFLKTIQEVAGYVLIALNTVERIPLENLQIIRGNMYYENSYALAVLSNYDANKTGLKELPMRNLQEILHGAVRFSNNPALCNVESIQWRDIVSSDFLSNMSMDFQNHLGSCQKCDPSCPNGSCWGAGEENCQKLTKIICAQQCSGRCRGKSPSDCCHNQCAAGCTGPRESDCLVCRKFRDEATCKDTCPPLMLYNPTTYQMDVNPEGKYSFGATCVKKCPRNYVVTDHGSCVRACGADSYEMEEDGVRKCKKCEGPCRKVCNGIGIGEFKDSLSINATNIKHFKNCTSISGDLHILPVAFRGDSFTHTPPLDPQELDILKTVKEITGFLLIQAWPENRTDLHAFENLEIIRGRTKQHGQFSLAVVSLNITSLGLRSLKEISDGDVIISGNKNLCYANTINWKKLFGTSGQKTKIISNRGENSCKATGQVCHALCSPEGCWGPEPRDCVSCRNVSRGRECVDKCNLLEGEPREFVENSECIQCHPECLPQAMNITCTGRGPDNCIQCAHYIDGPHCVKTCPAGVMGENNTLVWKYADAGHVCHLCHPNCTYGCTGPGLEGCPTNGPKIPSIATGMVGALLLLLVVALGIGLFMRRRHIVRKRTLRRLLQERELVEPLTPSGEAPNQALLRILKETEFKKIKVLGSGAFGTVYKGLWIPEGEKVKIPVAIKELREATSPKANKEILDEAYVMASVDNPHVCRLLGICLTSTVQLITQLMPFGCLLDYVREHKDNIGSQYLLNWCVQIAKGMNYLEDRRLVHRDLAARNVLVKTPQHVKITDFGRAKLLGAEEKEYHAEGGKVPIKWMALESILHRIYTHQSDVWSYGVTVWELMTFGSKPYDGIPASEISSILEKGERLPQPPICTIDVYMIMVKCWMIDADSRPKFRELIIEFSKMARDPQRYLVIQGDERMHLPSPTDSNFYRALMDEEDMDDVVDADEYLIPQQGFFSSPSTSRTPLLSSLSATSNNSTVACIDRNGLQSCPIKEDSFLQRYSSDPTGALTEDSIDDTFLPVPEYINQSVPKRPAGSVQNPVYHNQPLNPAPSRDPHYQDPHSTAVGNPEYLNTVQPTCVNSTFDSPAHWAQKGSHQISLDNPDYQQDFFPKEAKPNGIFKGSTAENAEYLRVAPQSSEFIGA
- experimental-details: EGFR target modulation in H3255 cell line (phospho-EGFR Y1173 ELISA)
experimental-endpoint: IC50 (nM)

IN: // returns reported IC50 for input Cc1cccc2nc(NC(=O)c3ccnc(C(F)(F)F)c3)n([C@@H]3CCCCN(C(=O)/C=C/CN(C)C)C3)c12
OUT: 2

IN: Request the reported IC50 associated with Cc1cccc2nc(NC(=O)c3cnc(Cl)c(Cl)c3)n([C@@H]3CCCCN(C(=O)/C=C/CN(C)C)C3)c12
OUT: 37

IN: Consider the molecule Cc1cccc2nc(NC(=O)c3cccc(C#N)c3)n(C3CCCCN(C(=O)/C=C/CN(C)C)C3)c12 (stereo not drawn) and give its measured IC50.
OUT: 13

IN: What IC50 value was documented for this molecule, Cc1cc(C(=O)Nc2nc3cccc(C)c3n2[C@@H]2CCCN(C(=O)/C=C/CN(C)C)C2)ccn1 ?
OUT: 156

IN: Any idea what IC50 was measured for Cc1cc(C(=O)Nc2nc3cccc(C(F)(F)F)c3n2[C@@H]2CCCCN(C(=O)/C=C/CN(C)C)C2)ccn1 ?
OUT: 14

IN: Entry C=CC(=O)N1CCC[C@@H](n2c(NC(=O)c3cccc(C(F)(F)F)c3)nc3cc(C(N)=O)ccc32)C1 : reported IC50 = ?
OUT: 2020

A = C=CC(=O)N1CCC[C@@H](n2c(NC(=O)c3cccc(C(F)(F)F)c3)nc3cc(CN(C)C(C)=O)ccc32)C1
B = CN(C)C/C=C/C(=O)N1CCCC[C@@H](n2c(NC(=O)c3ccnnc3)nc3cccc(Cl)c32)C1
IN: Hi, I'm comparing two records. Which one has the lower IC50, A or B ? Label of pick, please.
OUT: B

* * *

- study-target: EGFR(L858R/T790M) (Homo sapiens, UniProt P00533, L858R/T790M)
- Construct: purchased from Carna (GST-a.a. 669-1210)
- Sequence (P00533 669-1210 T790M/L858R): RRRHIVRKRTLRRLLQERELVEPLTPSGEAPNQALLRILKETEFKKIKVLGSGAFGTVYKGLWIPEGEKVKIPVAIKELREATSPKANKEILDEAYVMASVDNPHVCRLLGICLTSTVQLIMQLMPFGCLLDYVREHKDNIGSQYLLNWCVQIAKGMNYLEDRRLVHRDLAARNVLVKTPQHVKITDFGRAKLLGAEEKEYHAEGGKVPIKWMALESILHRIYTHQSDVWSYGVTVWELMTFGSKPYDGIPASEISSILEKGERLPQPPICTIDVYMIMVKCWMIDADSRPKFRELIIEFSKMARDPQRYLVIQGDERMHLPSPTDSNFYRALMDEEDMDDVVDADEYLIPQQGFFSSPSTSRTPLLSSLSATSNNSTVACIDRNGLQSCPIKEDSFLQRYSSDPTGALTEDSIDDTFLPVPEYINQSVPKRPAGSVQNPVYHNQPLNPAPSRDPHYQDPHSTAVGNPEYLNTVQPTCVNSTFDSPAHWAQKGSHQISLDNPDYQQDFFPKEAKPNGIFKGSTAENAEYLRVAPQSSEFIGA
- experimental-details: EGFR biochemical assay (HTRF), IC50 determinations
- condition-set: EGFR (L858R/T790M) with no pre-incubation; read-out: IC50 (μM) Column A
experimental-endpoint: IC50 (µM)

1 = Cc1cc(C(=O)Nc2nc3cccc(Cl)c3n2[C@@H]2CCCCN(C(=O)C3=CCN(C)CC3)C2)ccn1
2 = COC1CN(C/C=C/C(=O)N2CCCC[C@@H](n3c(NC(=O)c4ccnc(C)c4)nc4cccc(Cl)c43)C2)C1
3 = C=CC(=O)N1CCCC[C@@H](n2c(NC(=O)c3ccccc3)nc3cc(CN4CCCC4)cc(C)c32)C1
4 = C/C=C/C(=O)N1CCCCC(n2c(NC(=O)c3cccc(C(F)(F)F)c3)nc3cccc(C)c32)C1 (stereo not shown)
IN: List the compounds shown above again, sorted by falling IC50 values. Answer with the labels in sequence, matching the requested order.
OUT: 1, 4, 2, 3

A = Cc1cncc(C(=O)Nc2nc3cccc(C)c3n2[C@@H]2CCCCN(C(=O)/C=C/CN(C)C)C2)c1
B = C=CC(=O)N1CCCCC(n2c(NC(=O)c3cccc(C(F)(F)F)c3)nc3cc(C)ccc32)C1 (stereo not shown)
C = C/C=C/C(=O)N1CCCC[C@@H](n2c(NC(=O)c3cc(C)nc(C)c3)nc3cc(CN4CC[C@H](OC)C4)ccc32)C1
IN: Could you please sort these 3 entries by IC50 from high to low? Form entry: ranked labels (order as requested).
OUT: C, B, A

A = C=CS(=O)(=O)N1CCCCC(n2c(NC(=O)c3cccc(C(F)(F)F)c3)nc3cccc(C)c32)C1 (stereo not shown)
B = Cc1ncc(C(=O)Nc2nc3cccc(C)c3n2C2CCCCN(C(=O)/C=C/CN(C)C)C2)s1 (stereo not shown) [Example 17-64]
IN: // compare measured IC50, left A , right B , return larger Reply with the label of the item you choose.
OUT: A

A = Cc1cccc2nc(NC(=O)c3cccc(C(F)(F)F)c3)n([C@H]3COCCN(C(=O)/C=C/CN(C)C)C3)c12
B = Cc1cccc2nc(NC(=O)c3cccc(F)c3F)n(C3CCCCN(C(=O)/C=C/CN(C)C)C3)c12 (stereo not shown)
IN: Field: entry with larger IC50 (options A / B ). Provide the label of your selected option as the answer.
OUT: A
(A: 0.189 µM, B: 0.021 µM)

A = C=CC(=O)N1CCCC[C@@H](n2c(NC(=O)c3ccnnc3)nc3cccc(OC(C)C)c32)C1
B = Cc1cccc2nc(NC(=O)c3cncc(F)c3)n([C@@H]3CCCCN(C(=O)/C=C/CN(C)C)C3)c12
IN: Which has the smaller recorded IC50, A or B ? I would appreciate it if you answered with the label of your choice.
OUT: B
(B: 0.002 µM, A: 0.04 µM)

A = C=CC(=O)N1CCCC[C@@H](n2c(NC(=O)c3ccnc(C)c3)nc3cc(CN4CCC(F)(F)C4)cc(C)c32)C1
B = C=CC(=O)N1CCCC[C@@H](n2c(NC(=O)c3ccccc3)nc3cccc(CN4CCS(=O)(=O)CC4)c32)C1
IN: Out of A and B , name the one with the higher IC50. Mark your selection by writing its label.
OUT: B

A = Cc1cc(C(=O)Nc2nc3cccc(Cl)c3n2[C@@H]2CCCCN(C(=O)/C=C/CN3CC(F)(F)C3)C2)ccn1
B = C=CC(=O)N1CCCC[C@@H](n2c(NC(=O)c3ccccc3)nc3cccc(CO)c32)C1
IN: Of the pair A and B , name the member with the lesser recorded IC50. Answer by quoting the chosen item's label.
OUT: B
(B: 0.005 µM, A: 0.084 µM)

a = CC1=C(C(=O)N2CCCC[C@@H](n3c(NC(=O)c4ccnnc4)nc4cccc(C)c43)C2)S(=O)(=O)CCO1
b = C=CC(=O)N1CCCC[C@@H](n2c(NC(=O)c3ccnc(C)c3)nc3cccc(Cl)c32)C1
IN: Which of the two gives a bigger number for IC50: a or b ? # reply format: chosen label
OUT: a
